Provenance of the data: patent EP1198478B1

Please go through the items and note down their Percentage cytotoxicity.
# Tested on: HeP2 (Laryngeal)
# protocol: MTT cytotoxicity assay, HeP2 cells
# Type: cell-based
# condition.context: 1µM, 48 hours
One number for each entry, in %.

D-Phe-Cys-Tyr-D-Trp-Lys-Ac5c-Pen-Thr-NH2 [SEQ ID NO: 6] : 10.6
D-Phe-Cys-Tyr-D-Trp-Orn-Ac5c-Pen-Thr-NH2 [SEQ ID NO: 3] : 10.0
D-Phe-Cys-Tyr-D-Trp-Orn-Deg-Pen-Thr-NH2 [SEQ ID NO: 2] : 10.0

Turning to the following substance.
IN: Name the reported Percentage cytotoxicity value associated with the substance D-Phe-Cys-Tyr-D-Trp-Orn-Aib-Pen-Thr-NH2 [SEQ ID NO: 9]
OUT: 19.9

###

# Tested on: ECV304 (Endothelial)
# protocol: MTT cytotoxicity assay, ECV304 cells
# Type: cell-based
# condition.context: 100n M, 48 hours
Please go through the items and note down their Percentage cytotoxicity.
One number for each entry, in %.

Example entries and their recorded answers appear below.
D-Phe-Cys-Tyr-D-Trp-Orn-Aib-Pen-Thr-NH2 [SEQ ID NO: 9] : 19.9
D-Phe-Cys-Tyr-D-Trp-Lys-Ac5c-Pen-Thr-NH2 [SEQ ID NO: 6] : 13.9
D-Phe-Cys-Tyr-D-Trp-Orn-Ac5c-Pen-Thr-NH2 [SEQ ID NO: 3] : 15.9

IN: Name the reported Percentage cytotoxicity value associated with the substance D-Phe-Cys-Tyr-D-Trp-Orn-Deg-Pen-Thr-NH2 [SEQ ID NO: 2]
OUT: 14.9

###

# Tested on: HeP2 (Laryngeal)
# protocol: MTT cytotoxicity assay, HeP2 cells
# Assay type: cell-based
# condition.context: 100n M, 48 hours
Please go through the items and note down their Percentage cytotoxicity.
Give bare numbers, in %.

Example entries and their recorded answers appear below.
D-Phe-Cys-Tyr-D-Trp-Lys-Ac5c-Pen-Thr-NH2 [SEQ ID NO: 6] : 11.0
D-Phe-Cys-Tyr-D-Trp-Orn-Aib-Pen-Thr-NH2 [SEQ ID NO: 9] : 27.9
D-Phe-Cys-Tyr-D-Trp-Orn-Deg-Pen-Thr-NH2 [SEQ ID NO: 2] : 13.0

Turning to the following substance.
IN: Name the reported Percentage cytotoxicity value associated with the substance D-Phe-Cys-Tyr-D-Trp-Orn-Ac5c-Pen-Thr-NH2 [SEQ ID NO: 3]
OUT: 25.8

###

# Test system: L132 (Lung)
# protocol: MTT cytotoxicity assay, L132 cells
# Format: cell-based
# condition.context: 10 nM, 48 hours
assay.endpoint: Percentage cytotoxicity (%)
One number for each entry, in %.

D-Phe-Cys-Tyr-D-Trp-Orn-Deg-Pen-Thr-NH2 [SEQ ID NO: 2] : 23.4
D-Phe-Cys-Tyr-D-Trp-Orn-Ac5c-Pen-Thr-NH2 [SEQ ID NO: 3] : 28.6
D-Phe-Cys-Tyr-D-Trp-Orn-Aib-Pen-Thr-NH2 [SEQ ID NO: 9] : 26.1

Turning to the following substance.
IN: Reported Percentage cytotoxicity for L132 (Lung), given D-Phe-Cys-Tyr-D-Trp-Lys-Ac5c-Pen-Thr-NH2 [SEQ ID NO: 6] ?
OUT: 25.7

###

Please go through the items and note down their Percentage cytotoxicity.
# System: L132 (Lung)
# protocol: MTT cytotoxicity assay, L132 cells
# Assay type: cell-based
# condition.context: 1µM, 48 hours
One number for each entry, in %.

D-Phe-Cys-Tyr-D-Trp-Orn-Deg-Pen-Thr-NH2 [SEQ ID NO: 2] : 17.7

Hello, I would appreciate it if you could give Percentage cytotoxicity for each entry below.
1. D-Phe-Cys-Tyr-D-Trp-Orn-Aib-Pen-Thr-NH2 [SEQ ID NO: 9]
2. D-Phe-Cys-Tyr-D-Trp-Orn-Ac5c-Pen-Thr-NH2 [SEQ ID NO: 3]
3. D-Phe-Cys-Tyr-D-Trp-Lys-Ac5c-Pen-Thr-NH2 [SEQ ID NO: 6]

OUT:
12.9
19.8
13.7

###

Please go through the items and note down their Percentage cytotoxicity.
# Test system: HBL100 (Breast)
# protocol: MTT cytotoxicity assay, HBL100 cells
# Type: cell-based
# condition.context: 1nM, 48 hours
Answers are plain numbers, in %.

Example entries and their recorded answers appear below.
D-Phe-Cys-Tyr-D-Trp-Orn-Aib-Pen-Thr-NH2 [SEQ ID NO: 9] : 26.9
D-Phe-Cys-Tyr-D-Trp-Orn-Ac5c-Pen-Thr-NH2 [SEQ ID NO: 3] : 14.6

Hello, I would appreciate it if you could give Percentage cytotoxicity for each entry below.
1. D-Phe-Cys-Tyr-D-Trp-Lys-Ac5c-Pen-Thr-NH2 [SEQ ID NO: 6]
2. D-Phe-Cys-Tyr-D-Trp-Orn-Deg-Pen-Thr-NH2 [SEQ ID NO: 2]

OUT:
[15.7, 19.4]

###

# System: KB (Oral squamous)
# protocol: MTT cytotoxicity assay, KB cells
# Type: cell-based
# condition.context: 100n M, 48 hours
# Source text: The cytotoxic effect of peptides SEQ ID NO: 2, SEQ ID NO: 3, SEQ ID NO: 6, and SEQ ID NO: 9, was studied by MTT assay which is based on the principle of uptake of MTT [3-[4,5-dimethylthiazol-2-yl]-2,5-diphenyl tetrazolium bromide], a tetrazolium salt by the metabolically active cells where it is metabolized by active mitochondria into a blue colored formazan product which can be read spectrophotometrically. […]
assay.endpoint: Percentage cytotoxicity (%)
Numbers only, in %.

Example entries and their recorded answers appear below.
D-Phe-Cys-Tyr-D-Trp-Orn-Aib-Pen-Thr-NH2 [SEQ ID NO: 9] : 18.0
D-Phe-Cys-Tyr-D-Trp-Lys-Ac5c-Pen-Thr-NH2 [SEQ ID NO: 6] : 19.0
D-Phe-Cys-Tyr-D-Trp-Orn-Deg-Pen-Thr-NH2 [SEQ ID NO: 2] : 19.0

IN: Name the reported Percentage cytotoxicity value associated with the substance D-Phe-Cys-Tyr-D-Trp-Orn-Ac5c-Pen-Thr-NH2 [SEQ ID NO: 3]
OUT: 19.4

###

Please go through the items and note down their Percentage cytotoxicity.
# Tested on: HBL100 (Breast)
# protocol: MTT cytotoxicity assay, HBL100 cells
# Assay type: cell-based
# condition.context: 1µM, 48 hours
Answers are plain numbers, in %.

D-Phe-Cys-Tyr-D-Trp-Orn-Deg-Pen-Thr-NH2 [SEQ ID NO: 2] : 10.6
D-Phe-Cys-Tyr-D-Trp-Orn-Aib-Pen-Thr-NH2 [SEQ ID NO: 9] : 7.9
D-Phe-Cys-Tyr-D-Trp-Lys-Ac5c-Pen-Thr-NH2 [SEQ ID NO: 6] : 8.0

Turning to the following substance.
IN: Name the reported Percentage cytotoxicity value associated with the substance D-Phe-Cys-Tyr-D-Trp-Orn-Ac5c-Pen-Thr-NH2 [SEQ ID NO: 3]
OUT: 10.6

###

Please go through the items and note down their Percentage cytotoxicity.
# Test system: U87MG (Glioblastoma)
# protocol: MTT cytotoxicity assay, U87MG cells
# Type: cell-based
# condition.context: 10 nM, 48 hours
Numbers only, in %.

Example entries and their recorded answers appear below.
D-Phe-Cys-Tyr-D-Trp-Lys-Ac5c-Pen-Thr-NH2 [SEQ ID NO: 6] : 40.4
D-Phe-Cys-Tyr-D-Trp-Orn-Ac5c-Pen-Thr-NH2 [SEQ ID NO: 3] : 45.0
D-Phe-Cys-Tyr-D-Trp-Orn-Aib-Pen-Thr-NH2 [SEQ ID NO: 9] : 29.7

IN: Name the reported Percentage cytotoxicity value associated with the substance D-Phe-Cys-Tyr-D-Trp-Orn-Deg-Pen-Thr-NH2 [SEQ ID NO: 2]
OUT: 41.9

###

# System: ECV304 (Endothelial)
# protocol: MTT cytotoxicity assay, ECV304 cells
# Type: cell-based
# condition.context: 10 nM, 48 hours
Please go through the items and note down their Percentage cytotoxicity.
Give bare numbers, in %.

D-Phe-Cys-Tyr-D-Trp-Lys-Ac5c-Pen-Thr-NH2 [SEQ ID NO: 6] : 24.9
D-Phe-Cys-Tyr-D-Trp-Orn-Aib-Pen-Thr-NH2 [SEQ ID NO: 9] : 23.9
D-Phe-Cys-Tyr-D-Trp-Orn-Ac5c-Pen-Thr-NH2 [SEQ ID NO: 3] : 23.9

IN: Name the reported Percentage cytotoxicity value associated with the substance D-Phe-Cys-Tyr-D-Trp-Orn-Deg-Pen-Thr-NH2 [SEQ ID NO: 2]
OUT: 19.8

###

# Tested on: ECV304 (Endothelial)
# protocol: MTT cytotoxicity assay, ECV304 cells
# Assay type: cell-based
# condition.context: 1µM, 48 hours
# Description: The cytotoxic effect of peptides SEQ ID NO: 2, SEQ ID NO: 3, SEQ ID NO: 6, and SEQ ID NO: 9, was studied by MTT assay which is based on the principle of uptake of MTT [3-[4,5-dimethylthiazol-2-yl]-2,5-diphenyl tetrazolium bromide], a tetrazolium salt by the metabolically active cells where it is metabolized by active mitochondria into a blue colored formazan product which can be read spectrophotometrically. […]
assay.endpoint: Percentage cytotoxicity (%)
Give bare numbers, in %.

Example entries and their recorded answers appear below.
D-Phe-Cys-Tyr-D-Trp-Orn-Deg-Pen-Thr-NH2 [SEQ ID NO: 2] : 6.0
D-Phe-Cys-Tyr-D-Trp-Orn-Aib-Pen-Thr-NH2 [SEQ ID NO: 9] : 12.9
D-Phe-Cys-Tyr-D-Trp-Orn-Ac5c-Pen-Thr-NH2 [SEQ ID NO: 3] : 14.9

IN: Name the reported Percentage cytotoxicity value associated with the substance D-Phe-Cys-Tyr-D-Trp-Lys-Ac5c-Pen-Thr-NH2 [SEQ ID NO: 6]
OUT: 7.9
